assay.procedure: Half life in mouse at 1 umol/kg, iv administered using cassette dosing
Format: ADME, organism-based
protocol.conditions: in vivo
Consider the following molecules and their measured half-life readings.
Use h as the unit, but write only the number.

Cc1ccc(C(=O)Nc2cc(F)cc(CN3CCN(C(=O)C4CCCC4)[C@@H](C)C3)c2C)cn1    0.7

Req: Find the measured half-life of Cc1ccc(C(=O)Nc2cn3ncnc3c(CN3CCN(C(=O)C4CCCC4)[C@@H](C)C3)c2C)cn1 and report it.
Resp: 1.4

Req: Find the measured half-life of Cc1ccc(C(=O)Nc2cn3ncnc3c(O[C@H]3CCN(C(=O)CC(C(F)(F)F)C(F)(F)F)[C@@H](C)C3)c2C)cn1 and report it.
Resp: 3.9

Req: Find the measured half-life of Cc1ccc(C(=O)Nc2cn3ncnc3c(CN3CCN(C(=O)CC(C(F)(F)F)C(F)(F)F)[C@@H](C)C3)c2C)cn1 and report it.
Resp: 1

---

assay.procedure: AUC in mouse at 2 umol/kg, po administered using cassette dosing
Assay type: ADME, organism-based
protocol.conditions: in vivo
experimental.readout: AUC (µM·h)
Use µM·h as the unit, but write only the number.

Cc1ccc(C(=O)Nc2cn3ncnc3c(O[C@H]3CCN(C(=O)CC(C(F)(F)F)C(F)(F)F)[C@@H](C)C3)c2C)cn1    15
Cc1ccc(C(=O)Nc2cn3ncnc3c(CN3CCN(C(=O)CC(C(F)(F)F)C(F)(F)F)[C@@H](C)C3)c2C)cn1    2.3
Cc1ccc(C(=O)Nc2cn3ncnc3c(CN3CCN(C(=O)C4CCCC4)[C@@H](C)C3)c2C)cn1    0.84

Lab note: next compound to report on.
Req: Find the measured AUC of Cc1ccc(C(=O)Nc2cc(F)cc(CN3CCN(C(=O)C4CCCC4)[C@@H](C)C3)c2C)cn1 and report it.
Resp: 0.49

---

assay.procedure: Protein binding in mouse plasma
Format: ADME, cell-free
protocol.conditions: read-out: PPB (converted)
Consider the following compounds and their measured fraction unbound readings.

Req: Find the measured fraction unbound of Cc1ccc(C(=O)Nc2cn3ncnc3c(O[C@H]3CCN(C(=O)CC(C(F)(F)F)C(F)(F)F)[C@@H](C)C3)c2C)cn1 and report it.
Resp: 0.135

---

assay.procedure: Protein binding in human plasma
Assay type: ADME, cell-free
protocol.conditions: read-out: PPB (converted)
experimental.readout: fraction unbound

Cc1ccc(C(=O)Nc2cn3ncnc3c(CN3CCN(C(=O)CC(C(F)(F)F)C(F)(F)F)[C@@H](C)C3)c2C)cn1    0.139
Cc1ccc(C(=O)Nc2cn3ncnc3c(O[C@H]3CCN(C(=O)CC(C(F)(F)F)C(F)(F)F)[C@@H](C)C3)c2C)cn1    0.082
Cc1ccc(C(=O)Nc2cc(F)cc(CN3CCN(C(=O)C4CCCC4)[C@@H](C)C3)c2C)cn1    0.003

Req: Find the measured fraction unbound of Cc1ccc(C(=O)Nc2cn3ncnc3c(CN3CCN(C(=O)C4CCCC4)[C@@H](C)C3)c2C)cn1 and report it.
Resp: 0.227

---

assay.procedure: Half life in mouse at 2 umol/kg, po administered using cassette dosing
Assay type: ADME, organism-based
protocol.conditions: in vivo
experimental.readout: half-life (h)
Use h as the unit, but write only the number.

Recorded results for 3 compounds are shown here.
Cc1ccc(C(=O)Nc2cc(F)cc(CN3CCN(C(=O)C4CCCC4)[C@@H](C)C3)c2C)cn1    0.7
Cc1ccc(C(=O)Nc2cn3ncnc3c(CN3CCN(C(=O)C4CCCC4)[C@@H](C)C3)c2C)cn1    1.2
Cc1ccc(C(=O)Nc2cn3ncnc3c(O[C@H]3CCN(C(=O)CC(C(F)(F)F)C(F)(F)F)[C@@H](C)C3)c2C)cn1    3.6

Lab note: next compound to report on.
Req: Find the measured half-life of Cc1ccc(C(=O)Nc2cn3ncnc3c(CN3CCN(C(=O)CC(C(F)(F)F)C(F)(F)F)[C@@H](C)C3)c2C)cn1 and report it.
Resp: 1.1

---

assay.procedure: Clearance in mouse at 2 umol/kg, po and 1 umol/kg, iv administered using cassette dosing
Assay type: ADME, organism-based
protocol.conditions: in vivo
experimental.readout: clearance (mL/min/kg)
Use mL/min/kg as the unit, but write only the number.

Recorded results for 3 compounds are shown here.
Cc1ccc(C(=O)Nc2cn3ncnc3c(O[C@H]3CCN(C(=O)CC(C(F)(F)F)C(F)(F)F)[C@@H](C)C3)c2C)cn1    2.5
Cc1ccc(C(=O)Nc2cn3ncnc3c(CN3CCN(C(=O)CC(C(F)(F)F)C(F)(F)F)[C@@H](C)C3)c2C)cn1    18.3
Cc1ccc(C(=O)Nc2cc(F)cc(CN3CCN(C(=O)C4CCCC4)[C@@H](C)C3)c2C)cn1    33.3

Req: Find the measured clearance of Cc1ccc(C(=O)Nc2cn3ncnc3c(CN3CCN(C(=O)C4CCCC4)[C@@H](C)C3)c2C)cn1 and report it.
Resp: 18.3

---

assay.procedure: Apparent permeability across apical to basolateral side in human Caco2 cells
Type: ADME, cell-based
protocol.conditions: Caco-2
Consider the following molecules and their measured Papp A→B readings.
Use ×10⁻⁶ cm/s as the unit, but write only the number.

Cc1ccc(C(=O)Nc2cc(F)cc(CN3CCN(C(=O)C4CCCC4)[C@@H](C)C3)c2C)cn1    40

Req: Find the measured Papp A→B of Cc1ccc(C(=O)Nc2cn3ncnc3c(O[C@H]3CCN(C(=O)CC(C(F)(F)F)C(F)(F)F)[C@@H](C)C3)c2C)cn1 and report it.
Resp: 31

Req: Find the measured Papp A→B of Cc1ccc(C(=O)Nc2cn3ncnc3c(CN3CCN(C(=O)CC(C(F)(F)F)C(F)(F)F)[C@@H](C)C3)c2C)cn1 and report it.
Resp: 9.6

Req: Find the measured Papp A→B of Cc1ccc(C(=O)Nc2cn3ncnc3c(CN3CCN(C(=O)C4CCCC4)[C@@H](C)C3)c2C)cn1 and report it.
Resp: 2.5

---

assay.procedure: Solubility of compound in aqueous medium at pH 6.8
Assay type: physicochemical
experimental.readout: solubility (µM)
Use µM as the unit, but write only the number.

Cc1ccc(C(=O)Nc2cn3ncnc3c(CN3CCN(C(=O)CC(C(F)(F)F)C(F)(F)F)[C@@H](C)C3)c2C)cn1    200

Req: Find the measured solubility of Cc1ccc(C(=O)Nc2cn3ncnc3c(CN3CCN(C(=O)C4CCCC4)[C@@H](C)C3)c2C)cn1 and report it.
Resp: 190

Req: Find the measured solubility of Cc1ccc(C(=O)Nc2cc(F)cc(CN3CCN(C(=O)C4CCCC4)[C@@H](C)C3)c2C)cn1 and report it.
Resp: 71

Req: Find the measured solubility of Cc1ccc(C(=O)Nc2cn3ncnc3c(O[C@H]3CCN(C(=O)CC(C(F)(F)F)C(F)(F)F)[C@@H](C)C3)c2C)cn1 and report it.
Resp: 170

---

assay.procedure: Bioavailability in mouse at 2 umol/kg, po and 1 umol/kg, iv administered using cassette dosing
Assay type: ADME, organism-based
protocol.conditions: in vivo
Consider the following molecules and their measured bioavailability readings.
Note: state the figure and append the unit.

Cc1ccc(C(=O)Nc2cn3ncnc3c(CN3CCN(C(=O)CC(C(F)(F)F)C(F)(F)F)[C@@H](C)C3)c2C)cn1    110%
Cc1ccc(C(=O)Nc2cn3ncnc3c(CN3CCN(C(=O)C4CCCC4)[C@@H](C)C3)c2C)cn1    47%
Cc1ccc(C(=O)Nc2cn3ncnc3c(O[C@H]3CCN(C(=O)CC(C(F)(F)F)C(F)(F)F)[C@@H](C)C3)c2C)cn1    120%

Lab note: next molecule to report on.
Req: Find the measured bioavailability of Cc1ccc(C(=O)Nc2cc(F)cc(CN3CCN(C(=O)C4CCCC4)[C@@H](C)C3)c2C)cn1 and report it.
Resp: 48%

---

assay.procedure: Metabolic stability in human liver microsomes assessed as intrinsic clearance
Assay type: ADME, Microsome
Is CLH at least 30 µL/min/mg? Then 1. If not, -1.

Consider the worked cases shown below.
Cc1ccc(C(=O)Nc2cn3ncnc3c(CN3CCN(C(=O)CCC(F)(F)F)[C@@H](C)C3)c2C)cn1    -1
Cc1ccc(C(=O)Nc2cn3ncnc3c(CN3CCN(C(=O)C(C)C)[C@@H](C)C3)c2C)cn1    1
Cc1ccc(C(=O)Nc2cn3ncnc3c(CN3CCN(C(=O)C4CCCC4)[C@@H](C)C3)c2C)cn1    1
Cc1ccc(C(=O)Nc2cc(F)cc(CN3CCN(C(=O)C4CCCC4)[C@@H](C)C3)c2C)cn1    1

Req: Check if CLH >= 30 µL/min/mg (inclusive). Item: Cc1ccc(C(=O)Nc2cn3ncnc3c(CN3CCN(C(=O)CC(C(F)(F)F)C(F)(F)F)[C@@H](C)C3)c2C)cn1
Resp: -1

Req: Check if CLH >= 30 µL/min/mg (inclusive). Item: Cc1ccc(C(=O)Nc2cn3ncnc3c(O[C@H]3CCN(C(=O)CC(C(F)(F)F)C(F)(F)F)[C@@H](C)C3)c2C)cn1
Resp: -1

Req: Check if CLH >= 30 µL/min/mg (inclusive). Item: Cc1ccc(C(=O)Nc2cn3ncnc3c(CN3CCN(C(=O)c4ccccc4)[C@@H](C)C3)c2C)cn1
Resp: -1

These data points were gathered from ChEMBL document CHEMBL4342512.
